All values here come from patent EP1247803A2.

- System: MET
- assay_notes: MET biochemical kinase assay
- Set-up: species or system human; concentration or dose not given beside the values
measured_property: Met Kinase % Inhibition (%)

molecule: Cc1cc(O)cc(O)c1C=C1C(=O)Nc2ccc(S(=O)(=O)N3CCOCC3)cc21 [10720/F08]
experimental_system: MET
unit_of_measurement: %
reported: 36.2
--
molecule: Cc1cc(C=C2C(=O)Nc3c(Br)cc(Br)cc32)[nH]n1 [10725/A05]
experimental_system: MET
unit_of_measurement: %
reported: 47.5
--
molecule: O=C1Nc2ccc(S(=O)(=O)Nc3ccc(C(F)(F)F)cc3)cc2C1=Cc1ccc(O)c(Br)c1 [10734/E09]
experimental_system: MET
unit_of_measurement: %
reported: 96.2
--
molecule: O=C1Nc2c(Br)cc(Br)cc2C1=Cc1ccccc1 [10720/A06]
experimental_system: MET
unit_of_measurement: %
reported: 63.6
--
molecule: CCOc1ccccc1C=C1C(=O)Nc2ccc(S(=O)(=O)N3CCOCC3)cc21 [10717/F02]
experimental_system: MET
unit_of_measurement: %
reported: 30.4
--
molecule: CC(C)(C)c1ccc(C=C2C(=O)Nc3ccc(S(=O)(=O)N4CCOCC4)cc32)cc1 [10734/F10]
experimental_system: MET
unit_of_measurement: %
reported: 44.8
--
molecule: Cc1ccc(C=C2C(=O)Nc3ccc(CCCl)cc32)s1 [10717/G07]
experimental_system: MET
unit_of_measurement: %
reported: 7.5
--
molecule: COC(=O)Cc1c(Cl)[nH]c(C=C2C(=O)Nc3c(Br)cc(Br)c(C)c32)c1C(=O)OC [10725/A09]
experimental_system: MET
unit_of_measurement: %
reported: 44.3
--
molecule: O=C1Nc2ccc(CCCl)cc2C1=Cc1ccc(-c2ccccc2Cl)o1 [10730/G07]
experimental_system: MET
unit_of_measurement: %
reported: 26.2
